Recorded values, source the supplement of paper PMC8728848.

subject-of-test: GalNAc(b1-3)GalNAc
protocol-text: glycan array binding signal (z-score within array); higher = stronger binding
stated-conditions: glycan notation: IUPAC condensed, linker removed
This excerpt belongs to a sample that is enriched for the strongest signals.
metric-name: glycan array binding signal (z-score)

{"columns": ["binder", "reported-value"],
 "data": [
  ["BabA (Helicobacter pylori), O52269_HELPY (protein) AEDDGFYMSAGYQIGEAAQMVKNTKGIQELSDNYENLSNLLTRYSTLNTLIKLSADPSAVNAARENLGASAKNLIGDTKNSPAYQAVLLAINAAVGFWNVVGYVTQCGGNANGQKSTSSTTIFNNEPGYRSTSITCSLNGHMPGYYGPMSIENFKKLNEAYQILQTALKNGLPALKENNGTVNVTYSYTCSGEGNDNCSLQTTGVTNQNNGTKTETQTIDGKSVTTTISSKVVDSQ", -0.807],
  ["CBM13 2a (Mycobacterium tuberculosum), P64849 (protein) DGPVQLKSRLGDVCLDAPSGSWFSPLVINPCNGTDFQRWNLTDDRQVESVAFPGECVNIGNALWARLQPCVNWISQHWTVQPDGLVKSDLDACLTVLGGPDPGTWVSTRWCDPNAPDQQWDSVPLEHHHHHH", -0.167],
  ["F17bG (Escherichia coli), Q47200 (protein) MTNFYKVFLAVFILVCCNISHAVVSFIGSTENDVGPSQGSYSSTHAMDNLPFVYNTGYNIGYQNANVWRIGGGFCVGLDGKVDLPVVGSLDGQSIYGLTEEVGLLIWMGDTNYSRGTAMSGNSWENVFSGWCVGNYLSTQGLSVHVRPVILKRNSSAQYSVQKTSIGSIRMRPYNGSSAGSVQTTVNFSLNPFTLNDTVTSCRLLTPSAVNVSLAAISAGQLPSSGDEVVAGTTSLKLQCDAGVTVWATLTDATTPSNRSDILTLTGASTATGVGLRIYKNTDSTPLKFGPDSPVKGNENQWQLSTGTETSPSVRLYVKYVNTGEGINPGTVNGISTFTFSYQ", 4.47]
]}
